# key: entry, value: % activation with respect to FGF2 (in vitro)
tested on: human venous endothelial cells (HUVECs); assay: In vitro angiogenesis model (pseudotubule length of HUVECs on matrigel/collagen); format: cell-based; design: concentration or dose not given beside the values; conditions: relative to FGF2; in vitro
Expressed in %, but write only the number.

Enquiry: Entry under review: Cc1c(NC(=O)c2cccc(OCC(=O)NCCNC(=O)COc3cccc(C(=O)Nc4c(C)c(C(=O)c5ccc6c(=O)n(CC(=O)O)c(=O)[nH]c6c5)n5ccccc45)c3)c2)c2ccccn2c1C(=O)c1ccc2c(=O)n(CC(=O)O)c(=O)[nH]c2c1 . Reported % activation with respect to FGF2 (in vitro)?
Return: 61

Enquiry: Next compound up: CCN(CCCCCOc1ccc(-c2c(C)c(C(=O)c3ccc4c(=O)n(CC(=O)O)c(=O)[nH]c4c3)n3ccccc23)cc1)CCCCCOc1ccc(-c2c(C)c(C(=O)c3ccc4c(=O)n(CC(=O)O)c(=O)[nH]c4c3)n3ccccc23)cc1
Return: 28

Enquiry: Lookup Cc1c(-c2ccc(OCCCCCN(CCCCCOc3ccc(-c4c(C)c(C(=O)c5ccc6c(=O)n(CC(=O)O)c(=O)[nH]c6c5)n5ccccc45)cc3)CCN3CCOCC3)cc2)c2ccccn2c1C(=O)c1ccc2c(=O)n(CC(=O)O)c(=O)[nH]c2c1
Return: 41

Enquiry: Entry Cc1c(-c2cccc(OCC(=O)NCCCCNC(=O)COc3cccc(-c4c(C)c(C(=O)c5ccc6[nH]c(=O)n(CC(=O)O)c(=O)c6c5)n5ccccc45)c3)c2)c2ccccn2c1C(=O)c1ccc2[nH]c(=O)n(CC(=O)O)c(=O)c2c1 please
Return: 28

Enquiry: Repeat for the following compound: Cc1c(-c2ccc(OCC(=O)NCCCCNC(=O)COc3ccc(-c4c(C)c(C(=O)c5ccc6[nH]c(=O)n(CC(=O)O)c(=O)c6c5)n5ccccc45)cc3)cc2)c2ccccn2c1C(=O)c1ccc2[nH]c(=O)n(CC(=O)O)c(=O)c2c1
Return: 30
